# Assay Target: GlcNAc(b1-3)Gal(b1-3)GalNAc
# Protocol Details: glycan array binding signal (z-score within array); higher = stronger binding
# Conditions Used: glycan notation: IUPAC condensed, linker removed
The sample as a whole holds a higher share of the strongest signals than the screen did.
Quantity: glycan array binding signal (z-score)
Give bare numbers.

Sample records with glycan array binding signal (z-score):
Binder	Quantity	Val
LlpA (Burkholderia cenocepacia) (protein) MGSSHHHHHHSSGLVPRGSHKILGSNETLSAGNVVYSDNGQYHLAMQTDGNLVVYGPTGAVWQSQTSGSGGNRAVMQGDGNLVIYRADNTAAWSSKTAHPGAFLAVQDDGNVVIYWPRPAWASNTSDPATQQSAESKYLASGSTMSAGQTVTVAQYMLVFQADGNLVLYKNGGNPIWSTGTQGKGATYAVMQSDGNFVIYAGSTALWSTKTNGANGAQLVLQSDGNLVIYAPTAAWSTKFGLVTAPTSTSTSNNGPGSGICVGVCPPHPLNGNPFSPVGVGTTGLGFPTPGYPGAAF	glycan array binding signal (z-score)	0.088
SrpA (Streptococcus sanguis) (protein) SSKSESTVNSQSASSETNRSSTNNGSTSSSSETARVRKRRATDTTPPTITVPSDIIAYRGEEFEFYFEITDDSGQVKNIELSTFGKPLGLNWLEYSEDNFNVPGNATSDNPLRVRVHGTVPLNEPIPADKNRAQFTRTIRAWDAAGNVSSNITFVIKYRAQTDKYNPADPTITYVDRLSSLSPSEKNAVEAAVRAANPQIPAAARITVSANGTVTITYPDSSTDTITANRVVKDLASSRSALT	glycan array binding signal (z-score)	1.6

Pending binder:
QUERY: Item LngA (Escherichia coli) (protein) MLSVYNRTQKFKAEARKKIAKYHELRKQRGMSLLEVIIVLGIIGTIAAGVVILAQRAFDSRAVTDLVTNTNTVRVRMKDAYQRDGKYPDFVDPLSLTANTIKTDTSGIPAAQLVQLGKITPDEVRNNISGDFIAIGGALTSNGAQVKKGFAIELNGLSQEQCRSILGQVGNNWEYVAIGTSASGSYAMTATGVDMSVAASTTVLRSLGNNGQTTLTADKILSTCTAQVNSITLGSR : provide glycan array binding signal (z-score)
RESULT: 0.147
